# method_description: Spontaneous hydrolysis (chemical stability) in aqueous phosphate buffer
# Assay type: physicochemical
# measurement_parameters: 0.05 M phosphate buffer, pH 7.3, 25°C

| smiles_text | t1/2 for the spontaneous hydrolysis |
| --- | --- |
| CCOC(=O)c1nn(S(=O)(=O)c2ccc(OC(=O)C(C)(C)C)cc2)c2ccccc12 | 10.5 h |
| CCOC(=O)c1nn(C)c2ccc(NS(=O)(=O)c3ccc(OC(=O)C(C)(C)C)cc3)cc12 | 16.5 h |
| CCOC(=O)c1cn(S(=O)(=O)c2ccc(OC(=O)C(C)(C)C)cc2)c2ccccc12 | 9.6 h |
| CC(C)(C)C(=O)Oc1ccc(S(=O)(=O)n2cc(C#N)c3ccccc32)cc1 | 14.4 h |
